Tested on: HepG2 cells
*1 amine or outer side, *2 acyl side, *3 side chain or, on linkers, in order; H or OH if unused. Where a SMILES comes first, the peptide text is derived from it. [ ]: non-standard residue; d: D form. The star is where a group is joined. X2 = CC=C(N[*:1])C(=O)[*:2]; dOrn = NCCC[C@@H](N)C(=O)O; Valol = CC(C)[C@@H](CO)N*; X1 = CCC(C)C(O)C(=O)*
measured property: CC50 (HepG2) relative to MIC values against bacterial pathogens

(Q) Given the entry CC=C(NC(=O)C(O)C(C)CC)C(=O)N[C@@H](CC(C)C)C(=O)N[C@H](CCCN)C(=O)N[C@H](C(=O)N[C@H](C(=O)N[C@H](C(=O)N[C@H](CCCCN)C(=O)N[C@H](C(=O)N[C@H](C(=O)N[C@@H](CCCCN)C(=O)N[C@H](Cc1ccc(O)cc1)C(=O)N[C@@H](CC(C)C)C(=O)N[C@H](CO)C(C)C)C(C)C)C(C)C)C(C)C)[C@@H](C)CC)[C@@H](C)CC (stereo partly drawn) [brevibacillin] (X1-[X2]L[dOrn]IIV[dK]VVK[dY]L-Valol) , report its measured CC50 (HepG2) relative to MIC values against bacterial pathogens.
(A) 2.5- to fivefold

---

Tested on: P. aeruginosa LMG6395
Assay: Synergy assay, checkerboard method
Details: antibiotic + brevibacillin, synergistic ≤0.5
Kindly state FICI for each of the entries shown.
Give bare numbers.

Give FICI for each of the items listed below.
1. CCn1cc(C(=O)O)c(=O)c2ccc(C)nc21
2. NCC[C@H](O)C(=O)N[C@@H]1C[C@H](N)[C@@H](O[C@H]2O[C@H](CN)[C@@H](O)[C@H](O)[C@H]2O)[C@H](O)[C@H]1O[C@H]1O[C@H](CO)[C@@H](O)[C@H](N)[C@H]1O
3. CC[C@H]1OC(=O)[C@H](C)[C@@H](O[C@H]2C[C@@](C)(OC)[C@@H](O)[C@H](C)O2)[C@H](C)[C@@H](O[C@@H]2O[C@H](C)C[C@H](N(C)C)[C@H]2O)[C@](C)(O)C[C@@H](C)CN(C)[C@H](C)[C@@H](O)[C@]1(C)O
4. CO[C@H]1/C=C/O[C@@]2(C)Oc3c(C)c(O)c4c(O)c(c(/C=N/N5CCN(C)CC5)c(O)c4c3C2=O)NC(=O)/C(C)=C\C=C\[C@H](C)[C@H](O)[C@@H](C)[C@@H](O)[C@@H](C)[C@H](OC(C)=O)[C@@H]1C

(A)
[0.516, 0.266, 0.516, 0.281]

---

Test system: HepG2 cells
Experimental: The cytotoxicity of brevibacillins was evaluated on HepG2 cells by using the XTT (Cell Proliferation Kit XTT, AppliChem) assay ([Roehm et al., 1991]). HepG2 cells [in Dulbecco’s modified Eagle’s medium (DMEM) supplemented with 10% fetal bovine serum] were seeded into 96-well plates and incubated at 37°C with 5% CO2. […] Subsequently, the absorbance values were measured by using a Varioskan^TM LUX multimode microplate reader (Thermo Fisher Scientific) at 485 nm (reference, 690 nm). […]
*1 amine or outer side, *2 acyl side, *3 side chain or, on linkers, in order; H or OH if unused. Where a SMILES comes first, the peptide text is derived from it. [ ]: non-standard residue; d: D form. The star is where a group is joined. X2 = CC=C(N[*:1])C(=O)[*:2]; dOrn = NCCC[C@@H](N)C(=O)O; Valol = CC(C)[C@@H](CO)N*; X1 = CCC(C)C(O)C(=O)*
Kindly state CC50 (HepG2) relative to MIC values against bacterial pathogens for each of the entries shown.

compound	result
CC=C(NC(=O)C(O)C(C)CC)C(=O)N[C@@H](CC(C)C)C(=O)N[C@H](CCCN)C(=O)N[C@H](C(=O)N[C@H](C(=O)N[C@H](C(=O)N[C@H](CCCCN)C(=O)N[C@H](C(=O)N[C@H](C(=O)N[C@@H](CCCCN)C(=O)N[C@H](Cc1ccc(O)cc1)C(=O)N[C@@H](CC(C)C)C(=O)N[C@H](CO)C(C)C)C(C)C)C(C)C)C(C)C)C(C)C)C(C)C (stereo partly drawn) [brevibacillin 2V] (X1-[X2]L[dOrn]VVV[dK]VVK[dY]L-Valol)	23 fold

Give CC50 (HepG2) relative to MIC values against bacterial pathogens for each of the items listed below.
1. CC=C(NC(=O)C(O)C(C)CC)C(=O)N[C@@H](CC(C)C)C(=O)N[C@H](CCCN)C(=O)N[C@H](C(=O)N[C@H](C(=O)N[C@H](C(=O)N[C@H](CCCCN)C(=O)N[C@H](C(=O)N[C@H](C(=O)N[C@@H](CCCCN)C(=O)N[C@H](Cc1ccc(O)cc1)C(=O)N[C@@H](CC(C)C)C(=O)N[C@H](CO)C(C)C)C(C)C)C(C)C)C(C)C)C(C)C)[C@@H](C)CC (stereo partly drawn) [brevibacillin V] (X1-[X2]L[dOrn]IVV[dK]VVK[dY]L-Valol)
2. CC=C(NC(=O)C(O)C(C)CC)C(=O)N[C@@H](CC(C)C)C(=O)N[C@H](CCCN)C(=O)N[C@H](C(=O)N[C@H](C(=O)N[C@H](C(=O)N[C@H](CCCCN)C(=O)N[C@H](C(=O)N[C@H](C(=O)N[C@@H](CCCCN)C(=O)N[C@H](Cc1ccc(O)cc1)C(=O)N[C@@H](CC(C)C)C(=O)N[C@H](CO)C(C)C)C(C)C)[C@@H](C)CC)C(C)C)[C@@H](C)CC)[C@@H](C)CC (stereo partly drawn) [brevibacillin I] (X1-[X2]L[dOrn]IIV[dK]IVK[dY]L-Valol)

(A)
1. 2.5- to fivefold
2. 2.5- to fivefold

---

Kindly state FICI for each of the entries shown.
Test system: P. aeruginosa LMG6395
Assay: Synergy assay, checkerboard method;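 also: antibiotics tested in twofold serial dilutions, with inhibition judged from plate OD600 readings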
Conditions: antibiotic + brevibacillin 2V, synergistic ≤0.5

# annotated cases, reported FICI shown
compound	measured property	result
CC[C@H]1OC(=O)[C@H](C)[C@@H](O[C@H]2C[C@@](C)(OC)[C@@H](O)[C@H](C)O2)[C@H](C)[C@@H](O[C@@H]2O[C@H](C)C[C@H](N(C)C)[C@H]2O)[C@](C)(O)C[C@@H](C)CN(C)[C@H](C)[C@@H](O)[C@]1(C)O [Azithromycin]	FICI	0.266
NCC[C@H](O)C(=O)N[C@@H]1C[C@H](N)[C@@H](O[C@H]2O[C@H](CN)[C@@H](O)[C@H](O)[C@H]2O)[C@H](O)[C@H]1O[C@H]1O[C@H](CO)[C@@H](O)[C@H](N)[C@H]1O [Amikacin]	FICI	0.266

Give FICI for each of the items listed below.
1. CCn1cc(C(=O)O)c(=O)c2ccc(C)nc21 [Nalidixic acid]
2. CO[C@H]1/C=C/O[C@@]2(C)Oc3c(C)c(O)c4c(O)c(c(/C=N/N5CCN(C)CC5)c(O)c4c3C2=O)NC(=O)/C(C)=C\C=C\[C@H](C)[C@H](O)[C@@H](C)[C@@H](O)[C@@H](C)[C@H](OC(C)=O)[C@@H]1C [Rifampicin]

(A)
1: 0.266; 2: 0.516

---

Kindly state FICI for each of the entries shown.
System: A. baumannii ATCC17978
Experiment: Synergy assay, checkerboard method
Conditions: antibiotic + brevibacillin V; A. baumannii ATCC17978; synergistic ≤0.5

molecular string	result
NCC[C@H](O)C(=O)N[C@@H]1C[C@H](N)[C@@H](O[C@H]2O[C@H](CN)[C@@H](O)[C@H](O)[C@H]2O)[C@H](O)[C@H]1O[C@H]1O[C@H](CO)[C@@H](O)[C@H](N)[C@H]1O	0.094

Give FICI for each of the items listed below.
1. CCn1cc(C(=O)O)c(=O)c2ccc(C)nc21
2. CO[C@H]1/C=C/O[C@@]2(C)Oc3c(C)c(O)c4c(O)c(c(/C=N/N5CCN(C)CC5)c(O)c4c3C2=O)NC(=O)/C(C)=C\C=C\[C@H](C)[C@H](O)[C@@H](C)[C@@H](O)[C@@H](C)[C@H](OC(C)=O)[C@@H]1C
3. CC[C@H]1OC(=O)[C@H](C)[C@@H](O[C@H]2C[C@@](C)(OC)[C@@H](O)[C@H](C)O2)[C@H](C)[C@@H](O[C@@H]2O[C@H](C)C[C@H](N(C)C)[C@H]2O)[C@](C)(O)C[C@@H](C)CN(C)[C@H](C)[C@@H](O)[C@]1(C)O

(A)
[1.016, 0.516, 1.016]

---

Kindly state MIC of antibiotic at brevibacillin 2V 0 mg/L for each of the entries shown.
System: K. pneumoniae LMG20218
Experiment: Synergy assay, checkerboard method
Details: checkerboard, 5 × 10^5 cfu/ml, 37°C, 20 h, antibiotic alone
One number for each entry, in µg/mL.

# annotated cases, reported MIC of antibiotic at brevibacillin 2V 0 mg/L shown
molecule	unit of measure	result number
CC[C@H]1OC(=O)[C@H](C)[C@@H](O[C@H]2C[C@@](C)(OC)[C@@H](O)[C@H](C)O2)[C@H](C)[C@@H](O[C@@H]2O[C@H](C)C[C@H](N(C)C)[C@H]2O)[C@](C)(O)C[C@@H](C)CN(C)[C@H](C)[C@@H](O)[C@]1(C)O [Azithromycin]	µg/mL	16
CCn1cc(C(=O)O)c(=O)c2ccc(C)nc21 [Nalidixic acid]	µg/mL	32
CO[C@H]1/C=C/O[C@@]2(C)Oc3c(C)c(O)c4c(O)c(c(/C=N/N5CCN(C)CC5)c(O)c4c3C2=O)NC(=O)/C(C)=C\C=C\[C@H](C)[C@H](O)[C@@H](C)[C@@H](O)[C@@H](C)[C@H](OC(C)=O)[C@@H]1C [Rifampicin]	µg/mL	64

Kindly review the next molecule as well.
(Q) Given the entry NCC[C@H](O)C(=O)N[C@@H]1C[C@H](N)[C@@H](O[C@H]2O[C@H](CN)[C@@H](O)[C@H](O)[C@H]2O)[C@H](O)[C@H]1O[C@H]1O[C@H](CO)[C@@H](O)[C@H](N)[C@H]1O [Amikacin] , report its measured MIC of antibiotic at brevibacillin 2V 0 mg/L.
(A) 0.5
